All values here come from the NIST ThermoML archive (doi:10.1021/acs.jced.8b00213).

Assay: xn = mol fraction of the nth substance listed
Conditions: 328.15 K; 100 kPa; Liquid; Falling or rolling sphere viscometry; x1 = 0.25

COMPOUND: C[N+](C)(C)Cc1ccccc1.[Cl-] [trimethylbenzylammonium chloride] + OCCOCCO
UNIT_ANNOTATION: mPa·s
viscosity: 23.2
//
COMPOUND: CCCC[N+](CCCC)(CCCC)Cc1ccccc1.[Cl-] [benzyltributylammonium chloride] + OCCOCCO
UNIT_ANNOTATION: mPa·s
viscosity: 62.63
//
COMPOUND: CCCC[N+](CCCC)(CCCC)Cc1ccccc1.[Cl-] [benzyltributylammonium chloride] + OCCO
UNIT_ANNOTATION: mPa·s
viscosity: 55.8
//
COMPOUND: C[N+](C)(C)Cc1ccccc1.[Cl-] [trimethylbenzylammonium chloride] + OCCOCCOCCO
UNIT_ANNOTATION: mPa·s
viscosity: 54.9

====

Assay: xn = mol fraction of the nth substance listed
Settings: 298.15 K; 100 kPa; Liquid; Falling or rolling sphere viscometry; x1 = 0.25
Listed here are molecules together with their documented log10 of viscosity.
VALUE_TYPE: log10 of viscosity (log10 of the value in mPa·s)

MOLECULE: CCCC[N+](CCCC)(CCCC)Cc1ccccc1.[Cl-] [benzyltributylammonium chloride] + OCCOCCO
log10 of viscosity: 2.49
--
MOLECULE: C[N+](C)(C)Cc1ccccc1.[Cl-] [trimethylbenzylammonium chloride] + OCCOCCO
log10 of viscosity: 1.99
--
MOLECULE: CCCC[N+](CCCC)(CCCC)Cc1ccccc1.[Cl-] [benzyltributylammonium chloride] + OCCO
log10 of viscosity: 2.46
--
MOLECULE: CCCC[N+](CCCC)(CCCC)Cc1ccccc1.[Cl-] [benzyltributylammonium chloride] + OCC(O)CO
log10 of viscosity: 3.37
--
MOLECULE: C[N+](C)(C)Cc1ccccc1.[Cl-] [trimethylbenzylammonium chloride] + OCCOCCOCCO
log10 of viscosity: 2.49
--
MOLECULE: C[N+](C)(C)Cc1ccccc1.[Cl-] [trimethylbenzylammonium chloride] + OCC(O)CO
log10 of viscosity: 2.88
--
MOLECULE: CCCC[N+](CCCC)(CCCC)Cc1ccccc1.[Cl-] [benzyltributylammonium chloride] + OCCOCCOCCO
log10 of viscosity: 2.41
--
MOLECULE: C[N+](C)(C)Cc1ccccc1.[Cl-] [trimethylbenzylammonium chloride] + OCCO
log10 of viscosity: 1.66

====

Test: xn = mol fraction of the nth substance listed
Conditions: 308.15 K; 100 kPa; Liquid; Single path-length method; x1 = 0.25
Listed here are molecules together with their documented speed of sound.

MOLECULE: C[N+](C)(C)Cc1ccccc1.[Cl-] [trimethylbenzylammonium chloride] + OCCOCCO
speed of sound [m/s]: 1717.7
//
MOLECULE: CCCC[N+](CCCC)(CCCC)Cc1ccccc1.[Cl-] [benzyltributylammonium chloride] + OCCO
speed of sound [m/s]: 1650.5
//
MOLECULE: C[N+](C)(C)Cc1ccccc1.[Cl-] [trimethylbenzylammonium chloride] + OCC(O)CO
speed of sound [m/s]: 1910.1
//
MOLECULE: CCCC[N+](CCCC)(CCCC)Cc1ccccc1.[Cl-] [benzyltributylammonium chloride] + OCCOCCOCCO
speed of sound [m/s]: 1629.2
//
MOLECULE: C[N+](C)(C)Cc1ccccc1.[Cl-] [trimethylbenzylammonium chloride] + OCCO
speed of sound [m/s]: 1792.7
//
MOLECULE: CCCC[N+](CCCC)(CCCC)Cc1ccccc1.[Cl-] [benzyltributylammonium chloride] + OCC(O)CO
speed of sound [m/s]: 1761.7
//
MOLECULE: C[N+](C)(C)Cc1ccccc1.[Cl-] [trimethylbenzylammonium chloride] + OCCOCCOCCO
speed of sound [m/s]: 1702.8
//
MOLECULE: CCCC[N+](CCCC)(CCCC)Cc1ccccc1.[Cl-] [benzyltributylammonium chloride] + OCCOCCO
speed of sound [m/s]: 1629.5

====

Assay: xn = mol fraction of the nth substance listed
Settings: 308.15 K; 100 kPa; Liquid; Falling or rolling sphere viscometry; x1 = 0.25
Labelling: viscosity reported below 200 mPa·s becomes MET; at or above becomes NOT MET.

COMPOUND: C[N+](C)(C)Cc1ccccc1.[Cl-] [trimethylbenzylammonium chloride] + OCCOCCOCCO
ASSIGNED_LABEL: MET
--
COMPOUND: CCCC[N+](CCCC)(CCCC)Cc1ccccc1.[Cl-] [benzyltributylammonium chloride] + OCCOCCO
ASSIGNED_LABEL: MET
--
COMPOUND: C[N+](C)(C)Cc1ccccc1.[Cl-] [trimethylbenzylammonium chloride] + OCCOCCO
ASSIGNED_LABEL: MET
--
COMPOUND: C[N+](C)(C)Cc1ccccc1.[Cl-] [trimethylbenzylammonium chloride] + OCCO
ASSIGNED_LABEL: MET
--
COMPOUND: CCCC[N+](CCCC)(CCCC)Cc1ccccc1.[Cl-] [benzyltributylammonium chloride] + OCC(O)CO
ASSIGNED_LABEL: NOT MET
--
COMPOUND: CCCC[N+](CCCC)(CCCC)Cc1ccccc1.[Cl-] [benzyltributylammonium chloride] + OCCO
ASSIGNED_LABEL: MET
--
COMPOUND: C[N+](C)(C)Cc1ccccc1.[Cl-] [trimethylbenzylammonium chloride] + OCC(O)CO
ASSIGNED_LABEL: NOT MET
--
COMPOUND: CCCC[N+](CCCC)(CCCC)Cc1ccccc1.[Cl-] [benzyltributylammonium chloride] + OCCOCCOCCO
ASSIGNED_LABEL: MET

====

Listed here are compounds together with their documented viscosity.
Assay: xn = mol fraction of the nth substance listed
Details: 293.15 K; 100 kPa; Liquid; Falling or rolling sphere viscometry; x1 = 0.25
± gives the expanded uncertainty stated by the source.
VALUE_TYPE: viscosity

COMPOUND: CCCC[N+](CCCC)(CCCC)Cc1ccccc1.[Cl-] [benzyltributylammonium chloride] + OCCO
VALUE_TYPE: viscosity
RESULT: 415.2 ± 30 mPa·s
//
COMPOUND: CCCC[N+](CCCC)(CCCC)Cc1ccccc1.[Cl-] [benzyltributylammonium chloride] + OCCOCCO
VALUE_TYPE: viscosity
RESULT: 433.54 ± 32 mPa·s
//
COMPOUND: C[N+](C)(C)Cc1ccccc1.[Cl-] [trimethylbenzylammonium chloride] + OCC(O)CO
VALUE_TYPE: viscosity
RESULT: 1170.9 ± 120 mPa·s
//
COMPOUND: CCCC[N+](CCCC)(CCCC)Cc1ccccc1.[Cl-] [benzyltributylammonium chloride] + OCCOCCOCCO
VALUE_TYPE: viscosity
RESULT: 356.9 ± 24 mPa·s

====

Listed here are compounds together with their documented viscosity.
Assay: xn = mol fraction of the nth substance listed
Settings: 343.15 K; 100 kPa; Liquid; Falling or rolling sphere viscometry; x1 = 0.25

COMPOUND: C[N+](C)(C)Cc1ccccc1.[Cl-] [trimethylbenzylammonium chloride] + OCCOCCO
UNIT_ANNOTATION: mPa·s
viscosity: 14.2
--
COMPOUND: C[N+](C)(C)Cc1ccccc1.[Cl-] [trimethylbenzylammonium chloride] + OCCOCCOCCO
UNIT_ANNOTATION: mPa·s
viscosity: 27.4
--
COMPOUND: CCCC[N+](CCCC)(CCCC)Cc1ccccc1.[Cl-] [benzyltributylammonium chloride] + OCCO
UNIT_ANNOTATION: mPa·s
viscosity: 28.1
--
COMPOUND: C[N+](C)(C)Cc1ccccc1.[Cl-] [trimethylbenzylammonium chloride] + OCCO
UNIT_ANNOTATION: mPa·s
viscosity: 9.5

====

Assay: xn = mol fraction of the nth substance listed
Conditions: 318.15 K; 100 kPa; Liquid; Alternating current cell with electrodes; x1 = 0.25
Labelling: electrical conductivity reported below 0.1 S/m becomes Satisfied; at or above becomes Not satisfied.

COMPOUND: CCCC[N+](CCCC)(CCCC)Cc1ccccc1.[Cl-] [benzyltributylammonium chloride] + OCC(O)CO
ASSIGNED_LABEL: Satisfied
--
COMPOUND: CCCC[N+](CCCC)(CCCC)Cc1ccccc1.[Cl-] [benzyltributylammonium chloride] + OCCO
ASSIGNED_LABEL: Not satisfied
--
COMPOUND: C[N+](C)(C)Cc1ccccc1.[Cl-] [trimethylbenzylammonium chloride] + OCCOCCOCCO
ASSIGNED_LABEL: Not satisfied
--
COMPOUND: C[N+](C)(C)Cc1ccccc1.[Cl-] [trimethylbenzylammonium chloride] + OCCOCCO
ASSIGNED_LABEL: Not satisfied
--
COMPOUND: C[N+](C)(C)Cc1ccccc1.[Cl-] [trimethylbenzylammonium chloride] + OCC(O)CO
ASSIGNED_LABEL: Not satisfied
--
COMPOUND: C[N+](C)(C)Cc1ccccc1.[Cl-] [trimethylbenzylammonium chloride] + OCCO
ASSIGNED_LABEL: Not satisfied
--
COMPOUND: CCCC[N+](CCCC)(CCCC)Cc1ccccc1.[Cl-] [benzyltributylammonium chloride] + OCCOCCOCCO
ASSIGNED_LABEL: Satisfied
